# assaySummary: AUC (0 to t ) in Sprague-Dawley rat at 10 mg/kg, po measured upto 24 hrs by LC-MS/MS analysis
# Assay type: ADME, organism-based
# conditionLabel: in vivo
readoutLabel: AUC(0-t) at 24 h (ng·h/mL)
Give a bare numeral; the unit ng·h/mL is implied.

Need AUC(0-t) at 24 h, item "Cn1c(Cn2ccc(C(F)(F)F)c(Oc3cc(Cl)cc(-c4ccc(Br)cc4)c3)c2=O)n[nH]c1=O"
39600

----------
# assaySummary: Cmax in Sprague-Dawley rat at 2 mg/kg, iv measured upto 24 hrs by LC-MS/MS analysis
# Type: ADME, organism-based
# conditionLabel: in vivo
readoutLabel: Cmax

Need Cmax, item "Cn1c(Cn2ccc(C(F)(F)F)c(Oc3cc(Cl)cc(-c4ccc(Br)cc4)c3)c2=O)n[nH]c1=O"
1950 ng/mL
